- Tested on: Zika virus NS2B-NS3 protease (unlinked complex)
- TEST: Primary screen GU Rhodamine qHTS for Zika virus inhibitors: Unlinked NS2B-NS3 protease assay (AID 1347159); note: nearly all actives have a fitted effect of over 60% in size
- STATED CONDITIONS: Recombinant ZIKV NS2B-NS3 protease, Rhodamine110 substrate fluorescence; series mostly up to 107 µM
Inconclusive results are not listed. Activity calls are given as the source filed them. Calls come from the whole dose curve; as a rule, active = well fitted inhibition curve with a large enough effect; inconclusive = small, poorly fitted or top-dose-only effect; inactive = no such curve, though single readings can be large or run the other way.
Labels: active, inactive

[[record]]
molecule = "CC(=O)O[C@@]1(C)C[C@@H](O)[C@]2(O)C=CO[C@@H](O[C@@H]3O[C@H](CO)[C@@H](O)[C@H](O)[C@H]3O)[C@@H]21"
classification = "inactive"

[[record]]
molecule = "CC1(C)CC[C@]2(C(=O)O[C@@H]3O[C@H](CO)[C@@H](O)[C@H](O)[C@H]3O)CC[C@]3(C)C(=CCC4[C@@]5(C)C[C@@H](O)[C@H](O)[C@@](C)(CO)C5CC[C@]43C)C2C1 (stereo partly specified)"
classification = "inactive"

[[record]]
molecule = "CC1(C)CCCC2(C)C1C(O)C=C(CO)C2(O)C(=O)O (stereo unspecified)"
classification = "inactive"

[[record]]
molecule = "Cc1nn(C)c(COc2ccc(N3CCN(S(=O)(=O)N(C)C)CC3)cc2)c1-c1cccc2c(CCCOc3cccc4ccccc34)c(C(=O)O)n(CCN3CCOCC3)c12"
classification = "active"

[[record]]
molecule = "O=C(O)CCc1cc2ccoc2cc1O[C@@H]1O[C@H](CO[C@@H]2OC[C@](O)(CO)[C@H]2O)[C@@H](O)[C@H](O)[C@H]1O"
classification = "inactive"

[[record]]
molecule = "CC(=O)O[C@@H]1[C@@H](OC(=O)/C=C/c2ccccc2)[C@H](C)O[C@@H](O[C@H]2[C@@H]3C=CO[C@@H](O[C@@H]4O[C@H](CO)[C@@H](O)[C@H](O)[C@H]4O)[C@@H]3[C@@]3(CO)O[C@@H]23)[C@@H]1OC(C)=O"
classification = "inactive"


Sourced from PubChem BioAssay (NCATS)
